Organism: Mus musculus
Test: Analgesic activity in mouse by hot-plate method
Format: functional
Quick rule for you: log(1/C) under 2 gets yes (1), anything else gets no (0).

COMPOUND	CLASS
C[C@@]12CCN(CCc3ccccc3)C(Cc3ccc(O)cc31)[C@@H]2O (mixture of isomers)	no (0)
CC(=O)O[C@H]1C2Cc3ccccc3[C@@]1(C)CCN2C (mixture of isomers)	yes (1)
C[C@@H]1C2Cc3ccc(O)cc3[C@@]1(C)CCN2C (stereo in doubt; 9)	no (0)
CN1CC[C@]2(C)c3ccccc3CC1[C@@H]2O (mixture of isomers)	yes (1)
C[C@@]12CCNC(Cc3ccc(O)cc31)[C@H]2O (mixture of isomers)	yes (1)
CCCC[C@@]12CCN(C)C(Cc3ccc(O)cc31)C2 (mixture of isomers)	no (0)
C[C@H]1C2Cc3ccc(O)cc3[C@@]1(C)CCN2C	no (0)
COc1ccc2c(c1)[C@@]1(C)CCN(CCc3ccccc3)C(C2)[C@@H]1C	no (0)

Regarding C[C@@H]1C2Cc3ccccc3[C@@]1(C)CCN2C (mixture of isomers) , kindly confirm whether its log(1/C) is beneath 2.
yes (1)

Dear colleague, could you confirm whether log(1/C) of CC[C@@H]1C2Cc3ccc(O)cc3[C@@]1(CC)CCN2C (stereo in doubt; 6) falls below 2? Thanks.
no (0)

Determine whether this compound shows log(1/C) lower than 2 (ties excluded): CC[C@H]1C2Cc3ccc(O)cc3[C@@]1(CC)CCN2CCc1ccccc1 (mixture of isomers)
no (0)

Dear reviewer, please state whether CC(=O)Oc1ccc2c(c1)[C@@]1(C)CCN(C)C(C2)[C@@H]1C (mixture of isomers) has log(1/C) strictly beneath 2.
no (0)

Just wondering, is log(1/C) of CC[C@@H]1C2Cc3ccc(O)cc3[C@@]1(CC)CCN2C (stereo in doubt; 95) below 2?
yes (1)
